Target: PIM2 (Homo sapiens, UniProt Q9P1W9)
Sequence (Q9P1W9 whole entry): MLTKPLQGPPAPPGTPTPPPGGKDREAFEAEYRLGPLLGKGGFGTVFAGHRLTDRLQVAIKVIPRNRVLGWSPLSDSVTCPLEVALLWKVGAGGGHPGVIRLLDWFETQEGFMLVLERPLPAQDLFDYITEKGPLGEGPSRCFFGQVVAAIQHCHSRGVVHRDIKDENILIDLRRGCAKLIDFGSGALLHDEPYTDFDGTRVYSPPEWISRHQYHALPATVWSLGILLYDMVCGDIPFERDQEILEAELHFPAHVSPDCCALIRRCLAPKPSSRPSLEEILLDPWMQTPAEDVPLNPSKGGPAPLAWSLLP
Assay: KinaseGlo Pim2 ATP depletion assay
Type: biochemical
MEASUREMENT_LABEL: pIC50
# pIC50 is unitless: minus log10 of the molar concentration; print number only

Some solved cases for reference:
MOLECULAR_STRING: C[C@@H]1C[C@H](N)C[C@H](c2ccncc2NC(=O)c2ccc(F)c(-c3c(F)cccc3F)n2)O1
MEASUREMENT_LABEL: pIC50
READOUT_NUMBER: 7.35

MOLECULAR_STRING: CC[C@]1(O)[C@H](O)C[C@H](c2ccncc2NC(=O)c2nc(-c3ccccc3)cnc2N)O[C@@H]1C
MEASUREMENT_LABEL: pIC50
READOUT_NUMBER: 8.10

MOLECULAR_STRING: O=C(Nc1cnccc1C1=C[C@@H](O)[C@H](O)[C@@H](CO)O1)c1ccc(F)c(-c2c(F)cccc2F)n1
MEASUREMENT_LABEL: pIC50
READOUT_NUMBER: 7.77

MOLECULAR_STRING: CC[C@@]1(O)[C@H](O)C[C@H](c2ccncc2NC(=O)c2ccc(F)c(-c3c(F)cccc3F)n2)O[C@@H]1C
MEASUREMENT_LABEL: pIC50
READOUT_NUMBER: 7.96

MOLECULAR_STRING: O=C(Nc1cnccc1[C@H]1C[C@@H](O)[C@H](O)[C@@H](CCl)O1)c1ccc(F)c(-c2c(F)cccc2F)n1
MEASUREMENT_LABEL: pIC50
READOUT_NUMBER: 8.52

Tested on PIM2 (Homo sapiens, UniProt Q9P1W9), the item C[C@@H]1O[C@H](c2ccncc2NC(=O)c2nc(-c3ccccc3)cnc2N)C[C@H](O)[C@@]1(C)O showed pIC50 equal to 6.79

Tested system PIM2 (Homo sapiens, UniProt Q9P1W9); pIC50 recorded for Nc1cnc(-c2c(F)cccc2F)nc1C(=O)Nc1cnccc1[C@@H]1C[C@H](O)[C@@H](O)[C@H](C2CC2)O1 was 7.34

----------
Listed here: items and their measured pIC50.
Molecular target: PIM3 (Homo sapiens, UniProt Q86V86)
Assay: Pim 3 AlphaScreen assay (high ATP)
Format: biochemical
Conditions: read-out: Pim3 IC50
Procedure: Pim1, Pim2, Pim3 AlphaScreen Assay Pim 1, Pim 2 & Pim 3 AlphaScreen assays using high ATP (11-125×ATP Km) were used to determine the biochemical activity of the inhibitors. The activity of Pim 1, Pim 2, & Pim 3 is measured using a homogeneous bead based system quantifying the amount of phosphorylated peptide substrate resulting from kinase-catalyzed phosphoryl transfer to a peptide substrate. […]
// pIC50 here means minus log10 of the molar concentration (mol/L)

Here is how some molecules turned out for pIC50.
MOLECULE: C[C@@H]1O[C@H](c2ccncc2NC(=O)c2ccc(F)c(-c3c(F)cccc3F)n2)C[C@H](N)[C@@]1(C)O
MEASUREMENT_LABEL: pIC50
READOUT_NUMBER: 7.52
--
MOLECULE: N[C@@H]1C[C@H](c2ccncc2NC(=O)c2ccc(F)c(-c3c(F)cccc3F)n2)O[C@@H]2CCC[C@H]12
MEASUREMENT_LABEL: pIC50
READOUT_NUMBER: 8.39
--
MOLECULE: C[C@]1(O)[C@H](N)C[C@H](c2ccncc2NC(=O)c2ccc(F)c(-c3c(F)cccc3F)n2)OC12CC2 [Example 289]
MEASUREMENT_LABEL: pIC50
READOUT_NUMBER: 7.53
--
MOLECULE: Cc1cc(F)c(-c2nc(C(=O)Nc3cnccc3[C@H]3C[C@@H](N)[C@](C)(O)[C@@H](C)O3)ccc2F)c(F)c1
MEASUREMENT_LABEL: pIC50
READOUT_NUMBER: 9.10
--
MOLECULE: C[C@@]1(O)[C@@H](O)C[C@@H](c2ccncc2NC(=O)c2nc(-c3c(F)cccc3F)ncc2N)O[C@H]1C1CC1
MEASUREMENT_LABEL: pIC50
READOUT_NUMBER: 4.68
--
MOLECULE: C[C@]1(O)[C@H](O)C[C@H](c2ccncc2NC(=O)c2nc(-c3c(F)cccc3F)ncc2N)O[C@@H]1C1CC1
MEASUREMENT_LABEL: pIC50
READOUT_NUMBER: 6.01
--
MOLECULE: CC(C)C1OC(c2ccncc2NC(=O)c2ccc(F)c(-c3c(F)cccc3F)n2)C[C@H](N)[C@H]1O (stereo in doubt)
MEASUREMENT_LABEL: pIC50
READOUT_NUMBER: 7.02
--
MOLECULE: CNC(=O)c1ccc(F)c(-c2nc(C(=O)Nc3cnccc3C3C[C@@H](N)[C@H](O)[C@@H](C(C)C)O3)ccc2F)c1F (stereo in doubt)
MEASUREMENT_LABEL: pIC50
READOUT_NUMBER: 8.24

# pIC50 (molecule: C[C@]1(O)[C@H](N)C[C@H](c2ccncc2NC(=O)c2nc(-c3c(F)cccc3F)c(F)cc2N)O[C@@H]1C1CC1 ) is 8.92

// pIC50 lookup, molecule = CC[C@]1(O)[C@H](N)C[C@H](c2ccncc2NC(=O)c2ccc(F)c(-c3c(F)cc(C)cc3F)n2)O[C@@H]1C , result: 9.40

The molecule identified as C[C@H]1O[C@@H](c2ccncc2NC(=O)c2csc(-c3c(F)cccc3F)n2)C[C@@H](N)[C@]1(C)O registered its pIC50 at 7.73

Per the record, COCCOc1cc(F)c(-c2nc(C(=O)Nc3cnccc3C3C[C@@H](N)[C@H](O)[C@@H](C(C)C)O3)ccc2F)c(F)c1 (stereo in doubt) has pIC50 of 8.77

Reported pIC50 for CC(C)[C@H]1O[C@@H](c2ccncc2NC(=O)c2ccc(F)c(-c3c(F)cccc3F)n2)C[C@@H](N)[C@@H]1O was 8.68
